Test name: amyloid nucleation score (Sup35N fusion, yeast selection) (log enrichment); library NNK2; higher = more nucleation; inactive = no reads after selection;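 note: zero at mode of non-aggregating sequences after 7 days selection at 30°C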
Measured endpoint: amyloid nucleation score
Please respond with just the number, no unit label.

# example entries with known answers
[[record]]
substance = "VSVGWRVAVWWILKWEHLSR"
endpoint_result = 9.54

[[record]]
substance = "VSEMPLLYR"
endpoint_result = 0.769

[[record]]
substance = "CYGDAWSWEISMFCCVCRGF"
endpoint_result = 7.52

[[record]]
substance = "CCNQEVLD"
endpoint_result = 0.575

[[record]]
substance = "IMNMCISDKFSIVVSSYVRY"
endpoint_result = 0.958

[[record]]
substance = "EQYPNKPVRCEVRATATWGP"
endpoint_result = 0.245

[[record]]
substance = "LFLQGRNQLDTHWFCPACPM"
endpoint_result = -0.727

[[record]]
substance = "PISTSFYRMSILEYGSR"
endpoint_result = -0.529


What value of measured amyloid nucleation score is listed for DWWERGRVGSGCQSLGVTLH ? 0.923

For the substance shown here, NASIQR , give the reported amyloid nucleation score. 0.564

* * *

Test name: amyloid nucleation score (Sup35N fusion, yeast selection) (log enrichment); library NNK1; higher = more nucleation; inactive = no reads after selection
Entries are grouped by amyloid nucleation score into these classes: group 1 (below 0.1), group 2 (0.1 to below 2), group 3 (2 or more)

These recorded examples may help you get a feel for the data.
[[record]]
substance = "CQYMFHIWQLIANHVI"
assigned_class = "group 2"

[[record]]
substance = "LWFDYFPF"
assigned_class = "group 1"

[[record]]
substance = "GMALKLFCALT"
assigned_class = "group 1"


# bin lookup: classify IYEKRGD by its amyloid nucleation score group 2

Bin? QCVGPSVCVFVHRLVGCYRA group 3

Input LVMHVSWNVFIAVVLIFKDG ; output its category group 2

Consider CMDRSLMVNNTRPYGCLLEY . To which amyloid nucleation score class does it belong? group 3

* * *

Test name: amyloid nucleation score (Sup35N fusion, yeast selection) (log enrichment); library NNK1; higher = more nucleation; inactive = no reads after selection
Catalogue of amyloid nucleation score readings, one per entry.
Give the value as a plain number.

// worked examples, amyloid nucleation score included
[[record]]
substance = "AVCIYRHRLVTGSWWLSIS"
measured_endpoint = "amyloid nucleation score"
endpoint_result = 0.359

[[record]]
substance = "LRCCRVN"
measured_endpoint = "amyloid nucleation score"
endpoint_result = -0.474

[[record]]
substance = "RRHWTVMVMNIPVGMFIVIR"
measured_endpoint = "amyloid nucleation score"
endpoint_result = 0.155

[[record]]
substance = "NWVRLFQFILTRYSAFAHFR"
measured_endpoint = "amyloid nucleation score"
endpoint_result = -0.264

[[record]]
substance = "SSFIWMNC"
measured_endpoint = "amyloid nucleation score"
endpoint_result = -0.377

[[record]]
substance = "LGGVSSVLFYSHFLQVLEWC"
measured_endpoint = "amyloid nucleation score"
endpoint_result = -1.12

[[record]]
substance = "KDISITCLLYPKNHSGYSGT"
measured_endpoint = "amyloid nucleation score"
endpoint_result = 0.058

[[record]]
substance = "ELGKKYSLYSLVLAST"
measured_endpoint = "amyloid nucleation score"
endpoint_result = 0.107

[[record]]
substance = "LFYLFPELMWDMQLCKVDGW"
measured_endpoint = "amyloid nucleation score"
endpoint_result = 1.4

[[record]]
substance = "CLVKTSSVSTIWLVSCNTRT"
measured_endpoint = "amyloid nucleation score"
endpoint_result = 0.648


For VRAPRSVWRSFAAA , what is its reported amyloid nucleation score? -0.107

Consider the substance SCDVTILGYLAMMKLDVMWV and give its measured amyloid nucleation score. -0.074

GET /values?readout=amyloid nucleation score&item= VWLEYECKVLVLHYCFCRVR 0.72
